OBSERVABLE: melting point

Sample records with melting point:
COc1ccc2c(c1)C1=NN(C(C)=O)[C@@H](c3ccc4c(c3)OCCO4)[C@@H]1CC2 (relative stereo)    194 to 197 °C
COc1ccc2c(c1)C1=NN(C(C)=O)[C@@H](c3cccc(F)c3)[C@@H]1CC2 (relative stereo)    196 to 199 °C

Alright, here's another molecule for you.
Problem: Please report the measured melting point for CC(=O)N1N=C2c3ccccc3CC[C@H]2[C@@H]1c1ccc(F)cc1 (relative stereo)
Result: 168 to 171 °C

----------
Measured melting point, listed per entry.

COc1ccc2c(c1)C1=NN(C(C)=O)[C@@H](c3ccc4c(c3)OCCO4)[C@H]1CC2 (relative stereo) [Compound 178]    189 to 193 °C
COc1cc2c(cc1OC)C1=NN(C(C)=O)[C@@H](c3ccc(F)cc3)[C@@H]1CC2 (relative stereo) [Compound 198]    231 to 233 °C
COc1ccc2c(c1)C1=NN(C(C)=O)[C@@H](c3ccc4c(c3)OCO4)[C@@H]1CC2 (relative stereo) [Compound 205]    165 to 169 °C
COc1ccc2c(c1)C1=NN(C(C)=O)[C@@H](c3ccc4c(c3)OCO4)[C@H]1CC2 (relative stereo) [Compound 177]    206 to 209 °C
COc1cc2c(cc1OC)C1=NN(C(C)=O)[C@@H](c3ccc(F)cc3)[C@H]1CC2 (relative stereo) [Compound 164]    189 to 193 °C
COc1ccc([C@H]2[C@H]3CCc4ccccc4C3=NN2C(C)=O)cc1 (relative stereo) [Compound 167]    257 to 260 °C

Alright, here's another compound for you.
Problem: Please report the measured melting point for CC(=O)N1N=C2c3cc(C)ccc3OC[C@H]2[C@@H]1c1ccc(F)cc1 (relative stereo) [Compound 184]
Result: 218 to 220 °C

----------
OBSERVABLE: melting point

CC(=O)N1N=C2c3ccccc3CC[C@@H]2[C@@H]1c1ccc(F)cc1 (relative stereo)    166 to 168 °C
CC(=O)N1N=C2c3cc(C)ccc3OC[C@@H]2[C@@H]1c1ccc(F)cc1 (relative stereo)    243 to 246 °C
COc1ccc2c(c1)C1=NN(C(C)=O)[C@@H](c3ccc(F)cc3)[C@H]1CO2 (relative stereo)    245 °C
COc1ccc2c(c1)C1=NN(C(C)=O)[C@@H](c3ccc(F)cc3)[C@@H]1CO2 (relative stereo)    174 to 176 °C

Problem: Please report the measured melting point for COc1ccc([C@H]2[C@@H]3CCc4ccccc4C3=NN2C(C)=O)cc1 (relative stereo)
Result: 260 to 262 °C

Problem: Please report the measured melting point for COc1ccc2c(c1)C1=NN(C(C)=O)[C@@H](c3cccc(F)c3)[C@H]1CC2 (relative stereo)
Result: 176 to 177 °C

Problem: Please report the measured melting point for COc1ccc([C@H]2[C@@H]3CCc4ccc(OC)cc4C3=NN2C=O)cc1 (relative stereo)
Result: 166 to 168 °C

The origin of these recorded values is patent US20130158024A1.
